Every entry's value here was drawn from a melting point compilation (Tetko et al.; mined from patent text by program, amines drawn as free bases though some values may be those of a salt).

READOUT KIND: melting point

The cases that follow already have their melting point on record.
Cc1nn(-c2c(Cl)cc(C(F)(F)F)cc2Cl)c(NCC(=O)O)c1SC(F)(F)F ... 168 to 170 °C
N#Cc1ccc2c(c1)c1cc(C(=N)Nc3cccc(C(F)(F)F)c3)ccc1n2Cc1ccccc1 ... 210 to 220 °C
COC(=O)c1cccc(OCc2ncc3ccccc3n2)c1 ... 78 to 80 °C
COc1ccc(CCNc2nc(Cl)c3nc(-c4ccco4)oc3n2)cc1 ... 170 to 171 °C
CCCCCCNC(=O)c1ccc(N2N=C(CCC)C(=CNc3ccccc3CC)C2=O)cc1 ... 46.7 °C

Please give melting point for each item listed below.
1. CC(OS(C)(=O)=O)C(C)n1ncn(-c2ccc(N3CCN(c4ccc(OCC5COC(Cn6cncn6)(c6ccc(F)cc6F)O5)cc4)CC3)cc2)c1=O (stereo not drawn)
2. COc1cc(C(=O)Nc2nnn[nH]2)nc(-c2ccc(N(C)C)cc2)c1
3. CCCCCCCCCCCC1=NCCN1CCCCO
4. CCCCCCCCCCCCN=C=O
5. CCCCN(CCCC)CCCOc1ccc(-c2cn3cccc(C)c3n2)c(C)c1
6. CCOC(=O)c1ccc(N2CCN(c3c(C)nc(N)nc3N)CC2)cc1

**A:**
1. 172 °C
2. 261 to 263 °C
3. 58 to 60 °C
4. 100 to 103 °C
5. 78 to 81 °C
6. 281 to 285 °C
